# STUDY CONDITIONS: Liquid; ebulliometry
Task for the reader: assign each of the following molecules its reported Normal boiling temperature.
Numbers only, in °C.

Okay, here is my list. What is Normal boiling temperature for each of these?
1. CNC(C)=O [N-methylacetamide]
2. CC(=O)O [acetic acid]
3. O [water]

Result:
1: 204.92; 2: 117.70; 3: 99.81

Task: Query Normal boiling temperature for CN1CCCC1=O [N-methylpyrrolidone]
Result: 203.86
